system: Aspergillus fumigatus; test: Antifungal activity against Aspergillus fumigatus; assay type: functional
readout: MIC

[[record]]
molecule = "Oc1ccc2c(c1)CC(Nc1ccccc1)CC2 (stereo unspecified)"
readout = "MIC"
endpoint_result = "> 64 µM"

[[record]]
molecule = "CCCCCCCCCCNC1CCc2c(cccc2OC)C1 (stereo unspecified)"
readout = "MIC"
endpoint_result = "16 µM"

[[record]]
molecule = "CCCCNC1CCc2c(cccc2OC)C1 (stereo unspecified)"
readout = "MIC"
endpoint_result = "> 64 µM"

[[record]]
molecule = "COc1ccc2c(c1)CC(Nc1ccc(Cl)cc1)CC2 (stereo unspecified)"
readout = "MIC"
endpoint_result = "> 64 µM"

[[record]]
molecule = "CCCCCCCCCCCCCCCCCCNC1CCc2cc(O)ccc2C1 (stereo unspecified)"
readout = "MIC"
endpoint_result = "> 64 µM"

[[record]]
molecule = "CCCCCCCCCCCCCCNC1CCc2c(O)cccc2C1 (stereo unspecified)"
readout = "MIC"
endpoint_result = "> 64 µM"

[[record]]
molecule = "Oc1ccc2c(c1)CCC(NCc1ccccc1)C2 (stereo unspecified)"
readout = "MIC"
endpoint_result = "> 64 µM"

[[record]]
molecule = "CCCCCCCCCNC1CCc2c(O)cccc2C1 (stereo unspecified)"
readout = "MIC"
endpoint_result = "64 µM"

[[record]]
molecule = "CCCCCCCCNC1CCc2c(cccc2OC)C1 (stereo unspecified)"
readout = "MIC"
endpoint_result = "16 µM"

[[record]]
molecule = "CCCCNC1CCc2cc(OC)ccc2C1 (stereo unspecified)"
readout = "MIC"
endpoint_result = "> 64 µM"

[[record]]
molecule = "COc1cccc2c1CC(N)CC2 (stereo unspecified)"
readout = "MIC"
endpoint_result = "> 64 µM"

[[record]]
molecule = "CCCCCCCCCCNC1CCc2cccc(OC)c2C1 (stereo unspecified)"
readout = "MIC"
endpoint_result = "16 µM"

[[record]]
molecule = "Oc1cccc2c1CC(Nc1ccccc1)CC2 (stereo unspecified)"
readout = "MIC"
endpoint_result = "> 64 µM"

[[record]]
molecule = "CCCCCCCCCCCCNC1CCc2cccc(O)c2C1 (stereo unspecified)"
readout = "MIC"
endpoint_result = "32 µM"

[[record]]
molecule = "NC1CCc2cc(O)ccc2C1 (stereo unspecified)"
readout = "MIC"
endpoint_result = "> 64 µM"

[[record]]
molecule = "Oc1ccc2c(c1)CC(Nc1ccc(Cl)cc1)CC2 (stereo unspecified)"
readout = "MIC"
endpoint_result = "64 µM"

[[record]]
molecule = "CCCCCCCCNC1CCc2cc(O)ccc2C1 (stereo unspecified)"
readout = "MIC"
endpoint_result = "> 64 µM"

[[record]]
molecule = "Oc1cccc2c1CCC(Nc1ccc(Cl)cc1)C2 (stereo unspecified)"
readout = "MIC"
endpoint_result = "64 µM"

[[record]]
molecule = "CCCCCCCCCCCCCCCCCCNC1CCc2c(O)cccc2C1 (stereo unspecified)"
readout = "MIC"
endpoint_result = "> 64 µM"

[[record]]
molecule = "Oc1cccc2c1CC(NCc1ccccc1)CC2 (stereo unspecified)"
readout = "MIC"
endpoint_result = "> 64 µM"

[[record]]
molecule = "CCCCCCCCCCCCCCNC1CCc2ccc(O)cc2C1 (stereo unspecified)"
readout = "MIC"
endpoint_result = "> 64 µM"

[[record]]
molecule = "CCCCCCCCCCCCNC1CCc2ccc(OC)cc2C1 (stereo unspecified)"
readout = "MIC"
endpoint_result = "16 µM"

[[record]]
molecule = "COc1ccc2c(c1)CC(N)CC2 (stereo unspecified)"
readout = "MIC"
endpoint_result = "> 64 µM"

[[record]]
molecule = "COc1cccc2c1CC(NCc1ccccc1)CC2 (stereo unspecified)"
readout = "MIC"
endpoint_result = "> 64 µM"

[[record]]
molecule = "CCCCCCCCCCNC1CCc2c(O)cccc2C1 (stereo unspecified)"
readout = "MIC"
endpoint_result = "> 64 µM"

[[record]]
molecule = "CCCCCCCCNC1CCc2ccc(OC)cc2C1 (stereo unspecified)"
readout = "MIC"
endpoint_result = "64 µM"

[[record]]
molecule = "COc1cccc2c1CCC(Nc1ccc(Cl)cc1)C2 (stereo unspecified)"
readout = "MIC"
endpoint_result = "> 64 µM"

[[record]]
molecule = "CCCCCCCCCCCCCCNC1CCc2cccc(O)c2C1 (stereo unspecified)"
readout = "MIC"
endpoint_result = "16 µM"

[[record]]
molecule = "CCCCCCCCCCCCCCNC1CCc2cc(OC)ccc2C1 (stereo unspecified)"
readout = "MIC"
endpoint_result = "> 64 µM"

[[record]]
molecule = "CCCCCCCCCCCCCCCCCCNC1CCc2cc(OC)ccc2C1 (stereo unspecified)"
readout = "MIC"
endpoint_result = "> 64 µM"

[[record]]
molecule = "CCCCCCCCCCCCCCCCCCNC1CCc2ccc(OC)cc2C1 (stereo unspecified)"
readout = "MIC"
endpoint_result = "> 64 µM"

[[record]]
molecule = "NC1CCc2ccc(O)cc2C1 (stereo unspecified)"
readout = "MIC"
endpoint_result = "> 64 µM"

[[record]]
molecule = "COc1ccc(NC2CCc3c(O)cccc3C2)cc1 (stereo unspecified)"
readout = "MIC"
endpoint_result = "> 64 µM"

[[record]]
molecule = "COc1cccc2c1CCC(NCc1ccccc1)C2 (stereo unspecified)"
readout = "MIC"
endpoint_result = "> 64 µM"

[[record]]
molecule = "CCCCCCCCNC1CCc2c(O)cccc2C1 (stereo unspecified)"
readout = "MIC"
endpoint_result = "> 64 µM"

[[record]]
molecule = "CCCCNC1CCc2cc(O)ccc2C1 (stereo unspecified)"
readout = "MIC"
endpoint_result = "> 64 µM"

[[record]]
molecule = "CCCCCCCCCCCCCCCCCCNC1CCc2cccc(O)c2C1 (stereo unspecified)"
readout = "MIC"
endpoint_result = "> 64 µM"

[[record]]
molecule = "COc1ccc2c(c1)CCC(N)C2 (stereo unspecified)"
readout = "MIC"
endpoint_result = "> 64 µM"

[[record]]
molecule = "COc1ccc2c(c1)CCC(Nc1ccc(Cl)cc1)C2 (stereo unspecified)"
readout = "MIC"
endpoint_result = "> 64 µM"

[[record]]
molecule = "CCCCCCCCNC1CCc2cc(OC)ccc2C1 (stereo unspecified)"
readout = "MIC"
endpoint_result = "> 64 µM"

[[record]]
molecule = "CCCCCCCCNC1CCc2cccc(OC)c2C1 (stereo unspecified)"
readout = "MIC"
endpoint_result = "32 µM"

[[record]]
molecule = "CCCCNC1CCc2ccc(OC)cc2C1 (stereo unspecified)"
readout = "MIC"
endpoint_result = "> 64 µM"

[[record]]
molecule = "CCCCNC1CCc2cccc(O)c2C1 (stereo unspecified)"
readout = "MIC"
endpoint_result = "> 64 µM"

[[record]]
molecule = "Oc1cccc2c1CCC(Nc1ccccc1)C2 (stereo unspecified)"
readout = "MIC"
endpoint_result = "> 64 µM"

[[record]]
molecule = "COc1ccc(NC2CCc3cc(OC)ccc3C2)cc1 (stereo unspecified)"
readout = "MIC"
endpoint_result = "> 64 µM"

[[record]]
molecule = "CCCCCCCCCCNC1CCc2cc(O)ccc2C1 (stereo unspecified)"
readout = "MIC"
endpoint_result = "16 µM"

[[record]]
molecule = "COc1ccc(NC2CCc3ccc(OC)cc3C2)cc1 (stereo unspecified)"
readout = "MIC"
endpoint_result = "> 64 µM"

[[record]]
molecule = "OC(Cn1cncn1)(Cn1cncn1)c1ccc(F)cc1F [FLUCONAZOLE]"
readout = "MIC"
endpoint_result = "> 64 µM"

[[record]]
molecule = "COc1ccc(NC2CCc3cccc(OC)c3C2)cc1 (stereo unspecified)"
readout = "MIC"
endpoint_result = "> 64 µM"

[[record]]
molecule = "CCCCCCCCCCNC1CCc2ccc(O)cc2C1 (stereo unspecified)"
readout = "MIC"
endpoint_result = "32 µM"

[[record]]
molecule = "Oc1ccc2c(c1)CC(NCc1ccccc1)CC2 (stereo unspecified)"
readout = "MIC"
endpoint_result = "> 64 µM"

[[record]]
molecule = "COc1ccc(NC2CCc3c(cccc3OC)C2)cc1 (stereo unspecified)"
readout = "MIC"
endpoint_result = "> 64 µM"

[[record]]
molecule = "Oc1cccc2c1CC(Nc1ccc(Cl)cc1)CC2 (stereo unspecified)"
readout = "MIC"
endpoint_result = "> 64 µM"

[[record]]
molecule = "CCCCCCCCCNC1CCc2c(cccc2OC)C1 (stereo unspecified)"
readout = "MIC"
endpoint_result = "8 µM"

[[record]]
molecule = "COc1cccc2c1CC(Nc1ccc(Cl)cc1)CC2 (stereo unspecified)"
readout = "MIC"
endpoint_result = "> 64 µM"

[[record]]
molecule = "COc1cccc2c1CCC(N)C2 (stereo unspecified)"
readout = "MIC"
endpoint_result = "> 64 µM"

